test description: in vivo absorbency test (plasma concentration, pharmacokinetic parameters)
Design: species or system SD rats (male)
condition description: rat, plasma; 120 min; rats, iv, 20 mg/kg; read-out: Plasma Conc.
Catalogue of molecules with associated concentration at 2 h
observation type: concentration at 2 h (ng/mL)

[[record]]
molecule = "C[C@@H](O/N=C(\\C(=O)NC1C(=O)N2C(C(=O)[O-])=C(CSc3nc(N)cc(N)[n+]3N)CS[C@H]12)c1csc(N)n1)C(=O)O (some centres unmarked)"
reading_unit = "ng/mL"
result_number = 2500

[[record]]
molecule = "C[C@H](O/N=C(\\C(=O)NC1C(=O)N2C(C(=O)[O-])=C(CSc3nc(N)cc(N)[n+]3N)CS[C@H]12)c1csc(N)n1)C(=O)O (some centres unmarked)"
reading_unit = "ng/mL"
result_number = 3100


---

Tested on: Staphylococcus aureus ATCC 6638p
The reader will find reported MIC values listed item by item below.
observation type: MIC (µg/mL)

[[record]]
compound = "CCC[n+]1c(N)cc(N)nc1SCC1=C(C(=O)[O-])N2C(=O)C(NC(=O)/C(=N\\O[C@H](C)C(=O)O)c3csc(N)n3)[C@H]2SC1 (stereo partly drawn)"
result_number = 2

[[record]]
compound = "CC[n+]1c(N)cc(N)nc1SCC1=C(C(=O)[O-])N2C(=O)C(NC(=O)/C(=N\\O[C@H](C)C(=O)O)c3csc(N)n3)[C@H]2SC1 (stereo partly drawn)"
result_number = 2

[[record]]
compound = "C[C@H](O/N=C(\\C(=O)NC1C(=O)N2C(C(=O)[O-])=C(CSc3nc(N)cc(N)[n+]3C)CS[C@H]12)c1csc(N)n1)C(=O)O (stereo partly drawn)"
result_number = 2

[[record]]
compound = "CCC[n+]1c(N)cc(N)nc1SCC1=C(C(=O)[O-])N2C(=O)C(NC(=O)/C(=N\\O[C@@H](C)C(=O)O)c3csc(N)n3)[C@H]2SC1 (stereo partly drawn)"
result_number = 2

[[record]]
compound = "C[C@@H](O/N=C(\\C(=O)NC1C(=O)N2C(C(=O)[O-])=C(CSc3nc(N)cc(N)[n+]3C)CS[C@H]12)c1csc(N)n1)C(=O)O (stereo partly drawn)"
result_number = 4

[[record]]
compound = "CC[n+]1c(N)cc(N)nc1SCC1=C(C(=O)[O-])N2C(=O)C(NC(=O)/C(=N\\O[C@@H](C)C(=O)O)c3csc(N)n3)[C@H]2SC1 (stereo partly drawn)"
result_number = 2

[[record]]
compound = "Cc1c(N)nc(SCC2=C(C(=O)[O-])N3C(=O)C(NC(=O)/C(=N\\O[C@H](C)C(=O)O)c4csc(N)n4)[C@H]3SC2)[n+](C)c1N (stereo partly drawn)"
result_number = 4

[[record]]
compound = "CC(C)(O/N=C(\\C(=O)N[C@@H]1C(=O)N2C(C(=O)[O-])=C(C[n+]3ccccc3)CS[C@H]12)c1csc(N)n1)C(=O)O [CTZ, Ceftazidime, reference compound]"
result_number = 16

[[record]]
compound = "Cc1c(N)nc(SCC2=C(C(=O)[O-])N3C(=O)C(NC(=O)/C(=N\\O[C@@H](C)C(=O)O)c4csc(N)n4)C3SC2)[n+](C)c1N (stereo partly drawn)"
result_number = 4

[[record]]
compound = "C[C@H](O/N=C(\\C(=O)NC1C(=O)N2C(C(=O)[O-])=C(CSc3nc(N)cc(N)[n+]3N)CS[C@H]12)c1csc(N)n1)C(=O)O (stereo partly drawn)"
result_number = 4

[[record]]
compound = "C[C@@H](O/N=C(\\C(=O)NC1C(=O)N2C(C(=O)[O-])=C(CSc3nc(N)cc(N)[n+]3-c3ccccc3)CSC12)c1csc(N)n1)C(=O)O (stereo partly drawn)"
result_number = 4

[[record]]
compound = "Cc1c(N)nc(SCC2=C(C(=O)[O-])N3C(=O)C(NC(=O)/C(=N\\O[C@@H](C)C(=O)O)c4csc(N)n4)[C@H]3SC2)[n+](N)c1N (stereo partly drawn)"
result_number = 4


---

Measured MIC values are reported for all entries that follow.
Test system: Citrobacter freundii ATCC 8090
observation type: MIC (mg/L)

[[record]]
compound = "CC(C)(O/N=C(\\C(=O)N[C@@H]1C(=O)N2C(C(=O)[O-])=C(C[n+]3ccccc3)CS[C@H]12)c1csc(N)n1)C(=O)O [CTZ, Ceftazidime, reference compound]"
assay_target = "Citrobacter freundii ATCC 8090"
observation_type = "MIC"
result_number = 0.13

[[record]]
compound = "C[C@H](O/N=C(\\C(=O)NC1C(=O)N2C(C(=O)[O-])=C(CSc3nc(N)cc(N)[n+]3-c3ccccc3)CS[C@H]12)c1csc(N)n1)C(=O)O (stereo partly drawn) [I-S-5]"
assay_target = "Citrobacter freundii ATCC 8090"
observation_type = "MIC"
result_number = 0.13

[[record]]
compound = "C[C@@H](O/N=C(\\C(=O)NC1C(=O)N2C(C(=O)[O-])=C(CSc3nc(N)cc(N)[n+]3C)CS[C@H]12)c1csc(N)n1)C(=O)O (stereo partly drawn) [I-R-2]"
assay_target = "Citrobacter freundii ATCC 8090"
observation_type = "MIC"
result_number = 0.063

[[record]]
compound = "Cc1c(N)nc(SCC2=C(C(=O)[O-])N3C(=O)C(NC(=O)/C(=N\\O[C@H](C)C(=O)O)c4csc(N)n4)[C@H]3SC2)[n+](N)c1N (stereo partly drawn) [I-R-7]"
assay_target = "Citrobacter freundii ATCC 8090"
observation_type = "MIC"
result_number = 0.13

[[record]]
compound = "C[C@@H](O/N=C(\\C(=O)NC1C(=O)N2C(C(=O)[O-])=C(CSc3nc(N)cc(N)[n+]3N)CS[C@H]12)c1csc(N)n1)C(=O)O (stereo partly drawn) [I-R-1]"
assay_target = "Citrobacter freundii ATCC 8090"
observation_type = "MIC"
result_number = 0.031

[[record]]
compound = "CC[n+]1c(N)cc(N)nc1SCC1=C(C(=O)[O-])N2C(=O)C(NC(=O)/C(=N\\O[C@H](C)C(=O)O)c3csc(N)n3)[C@H]2SC1 (stereo partly drawn) [I-R-3]"
assay_target = "Citrobacter freundii ATCC 8090"
observation_type = "MIC"
result_number = 0.063


---

# MIC per record follows
Tested on: Serratia marcescens ATCC 27117
observation type: MIC

[[record]]
compound = "CCC[n+]1c(N)cc(N)nc1SCC1=C(C(=O)[O-])N2C(=O)C(NC(=O)/C(=N\\O[C@H](C)C(=O)O)c3csc(N)n3)[C@H]2SC1 (stereo partly drawn)"
result = "0.13 µg/mL"

[[record]]
compound = "C[C@@H](O/N=C(\\C(=O)NC1C(=O)N2C(C(=O)[O-])=C(CSc3nc(N)cc(N)[n+]3N)CS[C@H]12)c1csc(N)n1)C(=O)O (stereo partly drawn)"
result = "0.031 µg/mL"

[[record]]
compound = "CCC[n+]1c(N)cc(N)nc1SCC1=C(C(=O)[O-])N2C(=O)C(NC(=O)/C(=N\\O[C@@H](C)C(=O)O)c3csc(N)n3)[C@H]2SC1 (stereo partly drawn)"
result = "0.13 µg/mL"

[[record]]
compound = "Cc1c(N)nc(SCC2=C(C(=O)[O-])N3C(=O)C(NC(=O)/C(=N\\O[C@H](C)C(=O)O)c4csc(N)n4)[C@H]3SC2)[n+](C)c1N (stereo partly drawn)"
result = "0.13 µg/mL"

[[record]]
compound = "Cc1c(N)nc(SCC2=C(C(=O)[O-])N3C(=O)C(NC(=O)/C(=N\\O[C@@H](C)C(=O)O)c4csc(N)n4)[C@H]3SC2)[n+](N)c1N (stereo partly drawn)"
result = "0.063 µg/mL"

[[record]]
compound = "C[C@H](O/N=C(\\C(=O)NC1C(=O)N2C(C(=O)[O-])=C(CSc3nc(N)cc(N)[n+]3N)CS[C@H]12)c1csc(N)n1)C(=O)O (stereo partly drawn)"
result = "0.031 µg/mL"

[[record]]
compound = "Cc1c(N)nc(SCC2=C(C(=O)[O-])N3C(=O)C(NC(=O)/C(=N\\O[C@H](C)C(=O)O)c4csc(N)n4)[C@H]3SC2)[n+](N)c1N (stereo partly drawn)"
result = "0.13 µg/mL"

[[record]]
compound = "C[C@H](O/N=C(\\C(=O)NC1C(=O)N2C(C(=O)[O-])=C(CSc3nc(N)cc(N)[n+]3C)CS[C@H]12)c1csc(N)n1)C(=O)O (stereo partly drawn)"
result = "0.031 µg/mL"

[[record]]
compound = "C[C@H](O/N=C(\\C(=O)NC1C(=O)N2C(C(=O)[O-])=C(CSc3nc(N)cc(N)[n+]3-c3ccccc3)CS[C@H]12)c1csc(N)n1)C(=O)O (stereo partly drawn)"
result = "0.5 µg/mL"


---

Tested on: Pseudomonas aerugionsa ATCC 10145
test description: minimal inhibitory concentration, two-fold agar dilution
Format: cell-based
condition description: ATCC10145, Muller-Hinton agar, 37° C., 20 hours
Listing of entries alongside the reported MIC.
observation type: MIC (µg/mL)

[[record]]
compound = "C[C@@H](O/N=C(\\C(=O)NC1C(=O)N2C(C(=O)[O-])=C(CSc3nc(N)cc(N)[n+]3N)CS[C@H]12)c1csc(N)n1)C(=O)O (stereo partly drawn)"
assay_target = "Pseudomonas aerugionsa ATCC 10145"
reading_unit = "µg/mL"
result_number = 2

[[record]]
compound = "Cc1c(N)nc(SCC2=C(C(=O)[O-])N3C(=O)C(NC(=O)/C(=N\\O[C@H](C)C(=O)O)c4csc(N)n4)[C@H]3SC2)[n+](C)c1N (stereo partly drawn)"
assay_target = "Pseudomonas aerugionsa ATCC 10145"
reading_unit = "µg/mL"
result_number = 2

[[record]]
compound = "C[C@H](O/N=C(\\C(=O)NC1C(=O)N2C(C(=O)[O-])=C(CSc3nc(N)cc(N)[n+]3C)CS[C@H]12)c1csc(N)n1)C(=O)O (stereo partly drawn)"
assay_target = "Pseudomonas aerugionsa ATCC 10145"
reading_unit = "µg/mL"
result_number = 1

[[record]]
compound = "C[C@@H](O/N=C(\\C(=O)NC1C(=O)N2C(C(=O)[O-])=C(CSc3nc(N)cc(N)[n+]3-c3ccccc3)CSC12)c1csc(N)n1)C(=O)O (stereo partly drawn)"
assay_target = "Pseudomonas aerugionsa ATCC 10145"
reading_unit = "µg/mL"
result_number = 8

[[record]]
compound = "CC(C)(O/N=C(\\C(=O)N[C@@H]1C(=O)N2C(C(=O)[O-])=C(C[n+]3ccccc3)CS[C@H]12)c1csc(N)n1)C(=O)O [CTZ, Ceftazidime, reference compound]"
assay_target = "Pseudomonas aerugionsa ATCC 10145"
reading_unit = "µg/mL"
result_number = 2

[[record]]
compound = "CCC[n+]1c(N)cc(N)nc1SCC1=C(C(=O)[O-])N2C(=O)C(NC(=O)/C(=N\\O[C@H](C)C(=O)O)c3csc(N)n3)[C@H]2SC1 (stereo partly drawn)"
assay_target = "Pseudomonas aerugionsa ATCC 10145"
reading_unit = "µg/mL"
result_number = 4

[[record]]
compound = "C[C@H](O/N=C(\\C(=O)NC1C(=O)N2C(C(=O)[O-])=C(CSc3nc(N)cc(N)[n+]3-c3ccccc3)CS[C@H]12)c1csc(N)n1)C(=O)O (stereo partly drawn)"
assay_target = "Pseudomonas aerugionsa ATCC 10145"
reading_unit = "µg/mL"
result_number = 8

[[record]]
compound = "CCC[n+]1c(N)cc(N)nc1SCC1=C(C(=O)[O-])N2C(=O)C(NC(=O)/C(=N\\O[C@@H](C)C(=O)O)c3csc(N)n3)[C@H]2SC1 (stereo partly drawn)"
assay_target = "Pseudomonas aerugionsa ATCC 10145"
reading_unit = "µg/mL"
result_number = 2

[[record]]
compound = "CC[n+]1c(N)cc(N)nc1SCC1=C(C(=O)[O-])N2C(=O)C(NC(=O)/C(=N\\O[C@H](C)C(=O)O)c3csc(N)n3)[C@H]2SC1 (stereo partly drawn)"
assay_target = "Pseudomonas aerugionsa ATCC 10145"
reading_unit = "µg/mL"
result_number = 2

